Biological target: T1, human serum albumin (human, UniProt P02768 25-609)
T1 construct: Negative control antigen of the screening ELISA; also called HSA
T1 sequence (P02768 25-609 limits assumed): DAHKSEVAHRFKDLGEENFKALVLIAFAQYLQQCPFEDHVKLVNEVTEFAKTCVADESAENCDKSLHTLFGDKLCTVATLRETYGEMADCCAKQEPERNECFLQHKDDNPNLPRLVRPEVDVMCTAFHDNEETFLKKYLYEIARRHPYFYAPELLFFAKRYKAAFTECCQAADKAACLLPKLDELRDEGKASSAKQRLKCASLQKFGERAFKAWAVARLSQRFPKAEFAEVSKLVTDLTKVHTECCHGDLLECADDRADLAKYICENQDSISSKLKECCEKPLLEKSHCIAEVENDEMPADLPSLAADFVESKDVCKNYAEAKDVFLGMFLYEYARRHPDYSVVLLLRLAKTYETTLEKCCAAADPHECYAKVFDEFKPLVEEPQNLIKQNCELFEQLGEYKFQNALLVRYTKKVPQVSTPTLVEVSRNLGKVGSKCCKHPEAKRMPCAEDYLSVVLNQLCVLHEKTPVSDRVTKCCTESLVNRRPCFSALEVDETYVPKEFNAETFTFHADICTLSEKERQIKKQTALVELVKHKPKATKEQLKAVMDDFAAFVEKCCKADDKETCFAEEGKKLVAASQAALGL
Test: ELISA, bacterial lysate on plate-bound antigen, luminescence
PROPERTY: ELISA HSA (RLU)
Numbers only; they are read as RLU.

- ISOP120BR5P1G4 (designed binder, not shown: small tags and cut ends, FN3 domain (Centyrin); tested as E. coli lysate) LPAPKNLVVSRVTEDSARLSWAGHYRKIRNFDSFLIQYQESEKVGEAIVLTVPGSERSYDLTGLKPGTEYTVSIYGVKFPYYYATADSNPLSAIFTT: 400

The binder ISOP120HR5P1A7 (designed binder, not shown: small tags and cut ends, FN3 domain (Centyrin); tested as E. coli lysate) LPAPKNLVVSRVTEDSARLSWTAPDAAFDSFEIYYAEPRYYGEAIVLTVPGSERSYDLTGLKPGTEYTVTIYGVKGGYYSSPLSAIFTT showed ELISA HSA (RLU) equal to 480

The binder ISOP120BR5P1D8 (designed binder, not shown: small tags and cut ends, FN3 domain (Centyrin); tested as E. coli lysate) LPAPKNLVVSRVTEDSARLSWKNHTQEWEFDSFLIQYQESEKVGEAIVLTVPGSERSYDLTGLKPGTEYTVSIYGVPIAWLAWTSTSNPLSAIFTT showed ELISA HSA (RLU) equal to 320

The binder ISOP120GR5P1A11 (designed binder, not shown: small tags and cut ends, FN3 domain (Centyrin); tested as E. coli lysate) LPAPKNLVVSRVTEDSARLSWTAPDAAFDSFGIPYWEWTTEGEAIQLIVPGSERSYDLTGLKPATEYHVHIVGVKGGSFSEPLPADFTT showed ELISA HSA (RLU) equal to 320

The binder ISOP120HR5P1G4 (designed binder, not shown: small tags and cut ends, FN3 domain (Centyrin); tested as E. coli lysate) LPAPKNLVVSRVTEDSARLSWTAPDAAFDSFEIYYREYWYSGEAIVLTVPGSERSYDLTGLKPGTEYLVTIYGVKGGWYSDPLSAIFTT showed ELISA HSA (RLU) equal to 480

The binder ISOP120GR5P1F5 (designed binder, not shown: small tags and cut ends, FN3 domain (Centyrin); tested as E. coli lysate) LPAPKNLVVSRVTEDSARLSWTAPDAAFDSFEIDYWEVESEGEAIVLFVPGSERSYDLTGLKPGTEYHVHIVGVKGGTPSYPLWADFTT showed ELISA HSA (RLU) equal to 400

The binder ISOP120HR5P1H7 (designed binder, not shown: small tags and cut ends, FN3 domain (Centyrin); tested as E. coli lysate) LPAPKNLVVSRVTEDSARLSWTAPDAAFDSFDIYYGEPGNLGEAIVLTVPGSERSYDLTGLKPGTEYLVTIYGVKGGDYSSPLSAIFTT showed ELISA HSA (RLU) equal to 480

The binder ISOP120BR5P1B7 (designed binder, not shown: small tags and cut ends, FN3 domain (Centyrin); tested as E. coli lysate) LPAPKNLVVSRVTEDSARLSWGAKTRQFDSFLIQYQESEKVGEAIVLTVPGSERSYDLTGLKPGTEYTVSIYGVWWVENHFPVSNPLSAIFTT showed ELISA HSA (RLU) equal to 480

The binder ISOP120ER5P1B6 (designed binder, not shown: small tags and cut ends, FN3 domain (Centyrin); tested as E. coli lysate) LPAPKNLVVSRVTEDSARLSWTAPDAAFDSFDIYYGEHWKLGEAIVLTVQGSERSYDLTGLKPGTEYLVTIYGVKGGQWSFPLSAIFTT showed ELISA HSA (RLU) equal to 400

The binder ISOP120AR5P1F11 (designed binder, not shown: small tags and cut ends, FN3 domain (Centyrin); tested as E. coli lysate) LPAPKNLVVSRVTEDSARLSWTNEQITKYGFDSFLIQYQESEKVGEAIVLTVPGSERSYDLTGLKPATEYTVSIYGVGRHYTVYDSNPLSAIFTT showed ELISA HSA (RLU) equal to 320
